Target: human CYP1A2 (Homo sapiens, UniProt P05177)
Sequence (P05177 1-516): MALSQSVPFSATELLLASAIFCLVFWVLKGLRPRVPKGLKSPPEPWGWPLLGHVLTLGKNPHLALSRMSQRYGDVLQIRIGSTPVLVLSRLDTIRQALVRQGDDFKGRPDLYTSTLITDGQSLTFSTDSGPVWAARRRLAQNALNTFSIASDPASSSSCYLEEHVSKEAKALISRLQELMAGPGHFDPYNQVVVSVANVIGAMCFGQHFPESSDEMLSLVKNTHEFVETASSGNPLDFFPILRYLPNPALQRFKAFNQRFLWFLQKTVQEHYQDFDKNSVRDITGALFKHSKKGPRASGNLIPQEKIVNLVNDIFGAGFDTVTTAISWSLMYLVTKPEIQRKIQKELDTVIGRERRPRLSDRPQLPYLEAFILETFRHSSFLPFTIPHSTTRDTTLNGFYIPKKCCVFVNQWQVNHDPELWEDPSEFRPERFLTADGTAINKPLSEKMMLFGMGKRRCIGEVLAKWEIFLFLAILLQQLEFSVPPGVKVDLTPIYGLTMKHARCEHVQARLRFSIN
Assay: biochemical
Conditions: CYP1A2 IC50 (half-maximal inhibitory concentration)
Structures can show the parent of a compound that is named as a salt.
REPORTED PROPERTY: IC50 (µM)
Output spec: scalar in µM, unitless text.

Would you please look over these solved cases?
[
  {
    "MOLECULE": "CC(CN1c2ccccc2Sc2ccccc21)N(C)C (stereo not drawn) [Promethazine hydrochloride]",
    "IC50 (µM)": 2.23
  },
  {
    "MOLECULE": "CCN(CC)C(=O)SCc1ccc(Cl)cc1",
    "IC50 (µM)": 15.9
  },
  {
    "MOLECULE": "O=[N+]([O-])c1ccc2ccc3cccc4ccc1c2c34",
    "IC50 (µM)": 0.27
  },
  {
    "MOLECULE": "CCNP(=S)(OC)O/C(C)=C/C(=O)OC(C)C (stereo not drawn)",
    "IC50 (µM)": 2.25
  },
  {
    "MOLECULE": "COP(=S)(OC)SCN1C(=O)c2ccccc2C1=O",
    "IC50 (µM)": 6.92
  }
]

Data request: Name the reported IC50 value associated with the molecule O=c1c(-c2ccc(O)cc2)coc2cc(O)ccc12
Data returned: 28.3

---

Target: human CYP2C9 (Homo sapiens)
Experiment: biochemical
Conditions: CYP2C9 IC50 (half-maximal inhibitory concentration)
pIC50: −log10 of the molar value. Where a name gives a salt, the structure may show the parent alone.
Is pIC50 at least 5? Then label 1. If not, label 0.

Study these solved cases before continuing.
[
  {
    "MOLECULE": "C[Si](Cn1cncn1)(c1ccc(F)cc1)c1ccc(F)cc1 [Flusilazole]",
    "CLASS NAME": "label 1"
  },
  {
    "MOLECULE": "CCN(CC)C(=O)/C(C#N)=C/c1cc(O)c(O)c([N+](=O)[O-])c1 [Entacapone]",
    "CLASS NAME": "label 1"
  },
  {
    "MOLECULE": "CNCCC(Oc1ccc(C(F)(F)F)cc1)c1ccccc1 (stereo not drawn) [Fluoxetine hydrochloride]",
    "CLASS NAME": "label 0"
  },
  {
    "MOLECULE": "CCCCOCCOCCOCc1cc2c(cc1CCC)OCO2 [Piperonyl butoxide]",
    "CLASS NAME": "label 1"
  },
  {
    "MOLECULE": "COCCOC(=O)C1=C(C)NC(C)=C(C(=O)OC/C=C/c2ccccc2)C1c1cccc([N+](=O)[O-])c1 (stereo not drawn) [Cilnidipine]",
    "CLASS NAME": "label 1"
  }
]

--- query ---
Data request: Assess whether reported pIC50 for CCCCN(CCCC)CCCOC(=O)c1ccc(N)cc1 [Butacaine] sits at 5 or higher.
Data returned: label 0

---

Target: Photinus pyralis (firefly) luciferase (Photinus pyralis, UniProt P08659)
Sequence (P08659 whole entry): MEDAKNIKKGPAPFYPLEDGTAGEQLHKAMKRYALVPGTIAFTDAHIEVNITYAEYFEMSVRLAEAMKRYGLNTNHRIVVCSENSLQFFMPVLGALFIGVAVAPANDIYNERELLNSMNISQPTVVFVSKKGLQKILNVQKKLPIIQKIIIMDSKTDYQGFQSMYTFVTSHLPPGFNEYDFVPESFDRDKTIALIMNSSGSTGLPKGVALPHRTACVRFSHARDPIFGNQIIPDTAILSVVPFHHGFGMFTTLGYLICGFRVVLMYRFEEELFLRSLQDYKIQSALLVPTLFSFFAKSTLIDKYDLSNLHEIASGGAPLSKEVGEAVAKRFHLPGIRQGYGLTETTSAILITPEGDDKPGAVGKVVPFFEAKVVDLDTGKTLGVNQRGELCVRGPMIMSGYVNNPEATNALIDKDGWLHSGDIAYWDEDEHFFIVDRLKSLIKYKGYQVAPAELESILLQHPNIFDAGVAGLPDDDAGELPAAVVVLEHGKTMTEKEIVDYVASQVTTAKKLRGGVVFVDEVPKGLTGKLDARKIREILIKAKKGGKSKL
Assay: biochemical
Type: biochemical
Details: read-out: Luciferase IC50
REPORTED PROPERTY: IC50 (µM)
A number alone suffices; assume µM.

# count of solved cases: 5
[
  {
    "COMPOUND": "[I][Hg][I] [Mercury(II) iodide]",
    "IC50 (µM)": 5.25
  },
  {
    "COMPOUND": "N#Cc1cc2ccccc2c2ccccc12",
    "IC50 (µM)": 62.4
  },
  {
    "COMPOUND": "NNc1nc(-c2ccccc2)cs1 [2-Hydrazino-4-phenylthiazole]",
    "IC50 (µM)": 33.9
  },
  {
    "COMPOUND": "CCCCCCCCCCCCCCCCCC[N+](C)(C)Cc1ccccc1.[Cl-]",
    "IC50 (µM)": 87
  },
  {
    "COMPOUND": "Cc1cc(N=Nc2ccccc2C)ccc1N",
    "IC50 (µM)": 5.66
  }
]

Data request: Recorded IC50 for CCCCCCCC[N+](CCCCCCCC)(CCCCCCCC)CCCCCCCC.[Br-] [Tetra-N-octylammonium bromide] , please?
Data returned: 89.2

Data request: Which measured IC50 value corresponds to [Cl][Bi]([Cl])([c]1ccccc1)([c]1ccccc1)[c]1ccccc1 [Triphenylbismuthine dichloride] ?
Data returned: 13.2

Data request: What does the record list as IC50 for Nc1nc2ccc([N+](=O)[O-])cc2s1 ?
Data returned: 66.4

Data request: What measured IC50 goes with [Cl][Hg][Cl] [Mercuric chloride] ?
Data returned: 11

Data request: What IC50 value was documented for this compound, CC(=O)[O][Sn]([c]1ccccc1)([c]1ccccc1)[c]1ccccc1 [Triphenyltin acetate] ?
Data returned: 3.81

Data request: IC50 lookup needed for CCCCCCCC[P+](CCCCCCCC)(CCCCCCCC)CCCCCCCC.[Br-] [Tetraoctylphosphonium bromide] , thanks.
Data returned: 65.5

Data request: Look up IC50: COc1cc(Cl)ccc1Oc1ccc(Cl)cc1Cl
Data returned: 48.9

---

Molecular target: human CYP1A2 (Homo sapiens, UniProt P05177)
Sequence (P05177 1-516): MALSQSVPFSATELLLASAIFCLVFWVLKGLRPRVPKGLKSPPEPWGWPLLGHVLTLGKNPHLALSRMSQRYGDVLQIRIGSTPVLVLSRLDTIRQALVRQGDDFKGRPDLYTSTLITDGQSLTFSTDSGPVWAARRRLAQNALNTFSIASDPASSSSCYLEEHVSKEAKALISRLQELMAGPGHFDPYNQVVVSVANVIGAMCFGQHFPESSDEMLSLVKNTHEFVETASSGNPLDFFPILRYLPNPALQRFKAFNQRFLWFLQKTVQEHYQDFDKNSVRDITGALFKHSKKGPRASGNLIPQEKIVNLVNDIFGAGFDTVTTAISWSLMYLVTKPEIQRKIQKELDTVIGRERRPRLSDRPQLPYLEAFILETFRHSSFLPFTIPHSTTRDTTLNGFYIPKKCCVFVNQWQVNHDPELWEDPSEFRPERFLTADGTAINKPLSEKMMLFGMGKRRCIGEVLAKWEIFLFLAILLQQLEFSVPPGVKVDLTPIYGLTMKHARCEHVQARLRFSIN
Entries and their AC50 values follow.
Number in µM, nothing else.

Examples with their reported AC50 follow.
[
  {
    "COMPOUND": "CC(C)c1ccc2ncccc2c1",
    "REPORTED PROPERTY": "AC50",
    "RECORDED VALUE": 46.2
  },
  {
    "COMPOUND": "CC(C)(C)C1=CC(=O)C(C(C)(C)C)=CC1=O",
    "REPORTED PROPERTY": "AC50",
    "RECORDED VALUE": 16.1
  },
  {
    "COMPOUND": "CCN(CC)c1ccc(C=O)c(O)c1",
    "REPORTED PROPERTY": "AC50",
    "RECORDED VALUE": 16.4
  }
]

Data request: # input compound: CCOC(=O)c1ccc(O)c(O)c1 [Ethyl protocatechuate] ; wanted: its AC50
Data returned: 27.2

---

Biological target: human CYP2C9 (Homo sapiens, UniProt P11712)
Sequence (P11712 whole entry): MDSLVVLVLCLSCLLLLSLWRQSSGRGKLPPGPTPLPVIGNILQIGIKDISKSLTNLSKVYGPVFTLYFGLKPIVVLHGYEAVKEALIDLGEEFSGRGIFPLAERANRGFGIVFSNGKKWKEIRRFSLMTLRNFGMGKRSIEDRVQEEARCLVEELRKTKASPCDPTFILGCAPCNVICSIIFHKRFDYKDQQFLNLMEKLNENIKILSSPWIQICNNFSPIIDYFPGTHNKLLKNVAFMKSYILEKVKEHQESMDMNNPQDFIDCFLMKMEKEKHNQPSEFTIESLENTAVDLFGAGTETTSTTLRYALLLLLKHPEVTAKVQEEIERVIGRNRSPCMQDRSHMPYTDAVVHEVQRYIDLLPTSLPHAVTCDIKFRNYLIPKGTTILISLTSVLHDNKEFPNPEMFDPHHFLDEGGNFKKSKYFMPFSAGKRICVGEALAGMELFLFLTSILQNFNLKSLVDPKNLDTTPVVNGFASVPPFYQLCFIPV
Assay: biochemical
Conditions: IC50 CYP2C9 assay
REPORTED PROPERTY: pIC50
The quantity pIC50 is defined as the negative base-10 logarithm of the molar concentration.

Data request: I have this molecule here, O=C1c2ccccc2C(=O)C1C(=O)C(c1ccccc1)c1ccccc1 , and I need its recorded pIC50.
Data returned: 6.30

---

Target: human CYP1A2 (Homo sapiens, UniProt P05177)
REPORTED PROPERTY: AC50 (µM)
I only need the number, in µM, no unit after it.

Answered cases to consult:
[
  {
    "MOLECULE": "CCCCCC=CCC1CC(=O)OC1=O (centres unmarked) [2-Octen-1-ylsuccinic anhydride]",
    "U": "µM",
    "RECORDED VALUE": 31.9
  },
  {
    "MOLECULE": "CC(C)N1C(=O)c2ccccc2C1=O [N-Isopropylphthalimide]",
    "U": "µM",
    "RECORDED VALUE": 35.6
  },
  {
    "MOLECULE": "O=C(OCCCCCOC(=O)c1ccccc1)c1ccccc1 [Pentane-1,5-diyl dibenzoate]",
    "U": "µM",
    "RECORDED VALUE": 8.29
  },
  {
    "MOLECULE": "C=C(C)C(=O)OCCCCCCCCCCOC(=O)C(=C)C [1,10-Decanediol dimethacrylate]",
    "U": "µM",
    "RECORDED VALUE": 40.1
  }
]

Data request: May I ask what AC50 has been recorded for CN1C(=O)N(c2ccccc2Br)Cc2cnc(Nc3ccc4c(c3)OCC(CO)O4)nc21 (centres unmarked) ?
Data returned: 30.7
